target: UniProt:Q13191; assay: Cbl-b LCK Ub TR-FRET assay (Cbl-b Lck HTRF); assay type: biochemical; settings: Cbl-b LCK Ub TR-FRET
Overview of reported pIC50 across a group of compounds:
Scale explanation: pIC50 corresponds to minus log10 of a concentration expressed in moles per litre.

These recorded examples may help you get a feel for the data.
[[record]]
compound = "CO[C@](c1cccc(N2Cc3c(cc(CNC4(C)CCC4)cc3C(F)(F)F)C2=O)c1)(c1nncn1C)C1CCC1 (single isomer, unassigned)"
observed = 5.44

[[record]]
compound = "Cn1cnnc1[C@]1(c2cc(NC3CCC3)nc(N3Cc4c(cc(CNC5(C)CCC5)cc4C(F)(F)F)C3=O)c2)C[C@H](C)C1"
observed = 8.19


q: Would you mind telling me what pIC50 value was observed for "Cn1cnnc1[C@]1(c2cccc(N3Cc4c(cc(CNC5(C)CCC5)cc4C(F)(F)F)C3=O)c2)C[C@H](OCC#N)C1" ?
a: 8.17

q: Would you mind telling me what pIC50 value was observed for Cn1cnnc1[C@H](OC1CC1)c1cccc(N2Cc3c(cc(CNC4(C)CCC4)cc3C(F)(F)F)C2=O)c1 (single isomer, unassigned) ?
a: 6.54

q: Would you mind telling me what pIC50 value was observed for C[C@H](NC1(C)CCC1)c1cc(Cl)c2c(c1)C(=O)N(c1cccc([C@]3(c4nncn4C)C[C@@H](F)C3)c1)C2 (single isomer, unassigned) ?
a: 7.74

q: Would you mind telling me what pIC50 value was observed for C[C@H](NC1(C)CCC1)c1cc(Cl)c2c(c1)C(=O)N(c1cccc([C@]3(c4nncn4C)C[C@H](F)C3)c1)C2 (single isomer, unassigned) ?
a: 8.11

---

molecular target: Human Cbl-b (residues 40-426) (Homo sapiens (Human))
Sequence (Q13191 40-426): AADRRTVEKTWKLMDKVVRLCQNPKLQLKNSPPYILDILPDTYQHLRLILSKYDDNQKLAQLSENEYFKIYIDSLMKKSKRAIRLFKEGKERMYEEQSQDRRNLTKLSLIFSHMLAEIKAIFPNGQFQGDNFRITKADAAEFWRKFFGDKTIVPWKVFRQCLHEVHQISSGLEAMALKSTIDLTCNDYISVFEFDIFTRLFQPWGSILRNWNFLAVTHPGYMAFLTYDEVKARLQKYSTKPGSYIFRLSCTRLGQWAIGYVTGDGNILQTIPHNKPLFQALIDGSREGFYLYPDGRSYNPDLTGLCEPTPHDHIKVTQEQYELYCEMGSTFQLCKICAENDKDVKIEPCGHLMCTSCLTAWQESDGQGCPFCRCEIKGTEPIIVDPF
readoutType: pKd
Scale explanation: pKd corresponds to minus log10 of a concentration expressed in moles per litre.

These recorded examples may help you get a feel for the data.
[[record]]
compound = "CCNc1cc(N2Cc3c(cc(CNC4(C)CCC4)cc3C(F)(F)F)C2=O)cc([C@]2(c3nncn3C)C[C@H](C)C2)c1"
readouttype = "pKd"
observed = 9.70

[[record]]
compound = "CO[C@H]1C[C@](c2cccc(N3Cc4c(cc(CN5CCC5)cc4C(F)(F)F)C3=O)c2)(c2nncn2C)C1"
readouttype = "pKd"
observed = 7.35

[[record]]
compound = "Cn1cnnc1[C@]1(c2cccc(N3Cc4c(cc(CNC5(C)CCC5)cc4C(F)(F)F)C3=O)c2)C[C@H](C#N)C1"
readouttype = "pKd"
observed = 8.40

[[record]]
compound = "C[C@H](NC1(C)CCC1)c1cc(Cl)c2c(c1)C(=O)N(c1cccc([C@]3(c4nncn4C)C[C@@H](F)C3)c1)C2 (single isomer, unassigned)"
readouttype = "pKd"
observed = 8.34

[[record]]
compound = "Cn1cnnc1[C@]1(c2cccc(N3Cc4c(cc(CNC5(C)CCC5)cc4C(F)(F)F)C3=O)c2)C[C@]2(CCCO2)C1"
readouttype = "pKd"
observed = 7.09


Below: the item to evaluate.
q: Would you mind telling me what pKd value was observed for "CO[C@H]1C[C@](c2cccc(N3Cc4c(cc(CNCC(C)(C)F)cc4C(F)(F)F)C3=O)c2)(c2nncn2C)C1" ?
a: 8.34

---

target: Cbl-b (Homo sapiens (Human)); test: Cbl-b LCK Ub TR-FRET assay (Cbl-b Lck HTRF); format: biochemical; conditions: ratio C-cbl Lck HTRF IC50 / Cbl-b Lck HTRF IC50
param class (str): category from (fold-selectivity) Cbl-b and C-Cbl Selectivity; see ranges c1 (below 4 x), c2 (4 x to below 6 x), c3 (6 x or more)

Consider the following illustrative entries.
[[record]]
compound = "Cn1cnnc1[C@@H](c1cccc(N2Cc3c(cc(CN[C@@H]4C[C@@H]5C[C@@H]5C4)cc3C(F)(F)F)C2=O)c1)C1COC1 (single isomer, unassigned)"
classassignment = "c1"

[[record]]
compound = "CCC(NCc1cc2c(c(C(F)(F)F)c1)CN(c1cccc([C@]3(c4nncn4C)C[C@H](OC)C3)c1)C2=O)C(=O)OC (stereo partly drawn)"
classassignment = "c3"

[[record]]
compound = "CO[C@H]1C[C@](c2cccc(N3Cc4c(cc(CNCC5(CO)CCC5)cc4C(F)(F)F)C3=O)c2)(c2nncn2C)C1"
classassignment = "c2"

[[record]]
compound = "Cn1cnnc1[C@H](c1cccc(N2Cc3c(cc([C@@H](NC4(C)CCC4)C4CCC4)cc3C(F)(F)F)C2=O)c1)C1COC1 (single isomer, unassigned)"
classassignment = "c1"

[[record]]
compound = "CO[C@H]1C[C@](c2cccc(N3Cc4c(cc(CN5CCCCC5)cc4C(F)(F)F)C3=O)c2)(c2nncn2C)C1"
classassignment = "c3"


q: Please indicate the class for Cn1cnnc1[C@@H](c1cccc(N2Cc3c(cc([C@H](NC4(C)CCC4)C4CCC4)cc3C(F)(F)F)C2=O)c1)C1COC1 (single isomer, unassigned) based on its (fold-selectivity) Cbl-b and C-Cbl Selectivity.
a: c1

q: Please indicate the class for CO[C@H]1C[C@](c2cccc(N3Cc4c(cc(CNC5CC(C)(F)C5)cc4C(F)(F)F)C3=O)c2)(c2nncn2C)C1 (stereo partly drawn) based on its (fold-selectivity) Cbl-b and C-Cbl Selectivity.
a: c2

q: Please indicate the class for "CO[C@H]1C[C@](c2cccc(N3Cc4c(cc(CNC5CC5)cc4C(F)(F)F)C3=O)c2)(c2nncn2C)C1" based on its (fold-selectivity) Cbl-b and C-Cbl Selectivity.
a: c2

q: Please indicate the class for "CO[C@H]1C[C@@](c2cccc(N3Cc4ccc(CNC5(C)CCC5)cc4C3=O)c2)(c2nncn2C)C1" based on its (fold-selectivity) Cbl-b and C-Cbl Selectivity.
a: c2

q: Please indicate the class for "CO[C@H]1C[C@](c2cccc(N3Cc4c(cc(CN5CCC6(CC5)CC(O)C6)cc4C(F)(F)F)C3=O)c2)(c2nncn2C)C1" based on its (fold-selectivity) Cbl-b and C-Cbl Selectivity.
a: c3

---

target: c-Cbl (Homo sapiens (Human)); experiment: C-Cbl LCK Ub TR-FRET assay (C-cbl Lck HTRF); type: biochemical
Sequence (P22681 47-435): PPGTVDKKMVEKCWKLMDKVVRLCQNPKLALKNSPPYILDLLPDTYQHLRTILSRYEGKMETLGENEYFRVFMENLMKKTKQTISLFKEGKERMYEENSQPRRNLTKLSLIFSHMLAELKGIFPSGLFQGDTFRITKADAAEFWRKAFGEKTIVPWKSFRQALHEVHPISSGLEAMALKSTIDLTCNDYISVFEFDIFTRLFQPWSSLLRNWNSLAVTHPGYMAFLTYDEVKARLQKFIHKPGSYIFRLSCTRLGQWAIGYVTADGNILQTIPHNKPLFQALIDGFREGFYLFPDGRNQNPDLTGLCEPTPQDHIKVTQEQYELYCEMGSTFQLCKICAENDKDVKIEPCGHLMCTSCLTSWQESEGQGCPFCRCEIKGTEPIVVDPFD
readoutType: log10 of IC50 (log10 of the value in nM)
// stored as log10 of IC50 expressed in nM

These recorded examples may help you get a feel for the data.
[[record]]
compound = "Cn1cnnc1C1(c2cc(NC3CCCC3)nc(N3Cc4c(cc(CNC5(C)CCC5)cc4C(F)(F)F)C3=O)c2)CC2(COC2)C1"
observed = 2.26

[[record]]
compound = "CC(C)[C@H]1CN(C)CCN1Cc1cc2c(c(C(F)(F)F)c1)CN(c1cccc([C@]3(c4nncn4C)C[C@H](C#N)C3)c1)C2=O (single isomer, unassigned)"
observed = 1.15

[[record]]
compound = "CO[C@H]1C[C@](c2cc(NC(C)C)cc(N3Cc4c(cc(CNC5(C)CCC5)cc4C(F)(F)F)C3=O)c2)(c2nncn2C)C1"
observed = 1.08

[[record]]
compound = "Cn1cnnc1[C@H](c1cccc(N2Cc3c(cc(CNC4(C)CCC4)cc3C(F)(F)F)C2=O)c1)C1CC(F)C1 (single isomer, unassigned)"
observed = 3.30

[[record]]
compound = "C[C@H](NC1(C)CCC1)c1cc2c(c(C(F)(F)F)c1)CN(c1cccc(C3(c4nncn4C)CC(F)(F)C3)c1)C2=O (single isomer, unassigned)"
observed = 1.65


Below: the item to evaluate.
q: Would you mind telling me what log10 of IC50 value was observed for "CC[C@H]1C[C@@](c2cccc(N3Cc4c(cc(CNC5(C)CCC5)cc4C(F)(F)F)C3=O)c2)(c2nncn2C)C1" ?
a: 1.20

---

molecular target: Cbl-b (Homo sapiens (Human), UniProt Q13191); test: Cbl-b LCK Ub TR-FRET assay (Cbl-b Lck HTRF); format: biochemical; settings: Cbl-b LCK Ub TR-FRET, Example 121
Overview of reported IC50 across a group of compounds:
Hey, just the number and the unit after it is fine.

These recorded examples may help you get a feel for the data.
[[record]]
compound = "CO[C@H]1C[C@](c2cccc(N3Cc4c(cc(CNC5(C)CC5)cc4C(F)(F)F)C3=O)c2)(c2nncn2C)C1"
observed = "8.7 nM"

[[record]]
compound = "C[C@@H](NC1(C)CCC1)c1cc2c(c(C(F)F)c1)CN(c1cccc([C@H](c3nncn3C)C3COC3)c1)C2=O (single isomer, unassigned)"
observed = "14 nM"

[[record]]
compound = "CO[C@H]1C[C@](c2cccc(N3Cc4c(cc(CN5CCCC5)cc4C(F)(F)F)C3=O)c2)(c2nncn2C)C1"
observed = "180 nM"


q: Would you mind telling me what IC50 value was observed for Cn1cnnc1[C@H](c1cccc(N2Cc3c(cc([C@H](NC4(C)CCC4)C4CC4)cc3C(F)(F)F)C2=O)c1)C1COC1 (single isomer, unassigned) ?
a: 360 nM

q: Would you mind telling me what IC50 value was observed for "CO[C@H]1C[C@](c2cccc(N3Cc4c(cc(CNC56CC(C5)C6)cc4C(F)(F)F)C3=O)c2)(c2nncn2C)C1" ?
a: 13 nM

q: Would you mind telling me what IC50 value was observed for "C[C@@H](NC1(C)CCC1)c1cc2c(c(C(F)(F)F)c1)CN(c1cccc([C@H](c3nncn3C)C3COC3)c1)C2=O" ?
a: 4.1 nM
